Tested on: L1210 leukemia ip in BDF1 mice, survival T/C
TEST_PROTOCOL: NCI In Vivo Anticancer Drug Screen. Data for tumor model L1210 Leukemia (intraperitoneal) in B6D2F1 (BDF1) mice
CONDITION: endpoint: mean survival time; dose: 400.0 mg/kg/injection; schedule: Q04DX003 (ip); vehicle: saline; higher = longer survival
Toxic doses and inconclusive results are not listed.
In this section, each of the molecules is paired with its reported T/C.
QUANTITY: T/C

1) Cc1cc(N)on1    123 % of control
2) COC(=O)CN1C(=O)c2ccccc2C1=O    98 % of control
3) N#CNC(=S)S    104 % of control
4) O=C(O)C(F)(F)F    91 % of control
5) O=C(NC1(C(=O)O)CCCC1)C(F)(F)F    111 % of control
6) c1ccc2c(c1)Sc1cnccc1N2CC1CO1 (stereo not given)    96 % of control
7) C/C(=C(/CCO)SCCC(=O)c1ccc(Cl)cc1)N(C=O)Cc1cnc(C)nc1N    97 % of control
8) CCS(=O)(=O)N(CC(=O)O)Cc1ccccc1    94 % of control
9) CCCCCCCCCOC(=O)NC1c2ccccc2Oc2ccccc21    88 % of control
10) Nc1ncnn1C(=S)NCc1ccccc1    88 % of control
11) CC[n+]1c(C)sc2cc(Cl)c(-c3ccccc3)cc21    95 % of control
12) Cc1cc(C)c(C)c(C(=O)O)c1C    112 % of control
13) O=C(O)C1C2C=CC(CC2)C1C(=O)O (stereo not given)    94 % of control
14) O=c1[nH]c(=O)n2ncnc2[nH]1    96 % of control
15) C=CCC(CC)(C(=O)OCC)C(=O)OCC    96 % of control
16) CCCC(NC(C)=O)C(=O)O (stereo not given)    95 % of control
17) O=C1C2CCN(CC2)C1C(c1ccccc1)c1ccccc1 (stereo not given)    100 % of control
18) C=C(NC(=O)COc1ccccc1)C(=O)O    100 % of control
19) Cc1ccc[n+]([O-])c1N=[N+]=[N-]    98 % of control
20) O=C(COc1ccc2ccccc2c1)Nc1ccc[n+](Cc2ccc(S(=O)(=O)F)cc2)c1    94 % of control
21) OCCCCC(O)c1ccccc1 (stereo not given)    112 % of control
22) O=C1/C(=C\c2ccccc2)Cc2cc3c(cc21)OCO3    102 % of control
23) CC(C)Cc1c(N)nc(=S)[nH]c1C(=O)O    94 % of control
24) CC(Br)C1(c2cccc([N+](=O)[O-])c2)OCCO1 (stereo not given)    108 % of control
25) CCOC(=O)CSCc1cc(=O)[nH]c(=O)[nH]1    102 % of control

Origin of values: PubChem BioAssay AID248
